Target: Kras and SOS1 (biotin-tagged human Kras loaded with GDP, His-tagged human SOS1) (Homo sapiens, UniProt P01116, G12D)
Construct: made in house; host or cells: E. coli (stated for Kras only)
Sequence (P01116 1-188 isoform P01116-2 G12D): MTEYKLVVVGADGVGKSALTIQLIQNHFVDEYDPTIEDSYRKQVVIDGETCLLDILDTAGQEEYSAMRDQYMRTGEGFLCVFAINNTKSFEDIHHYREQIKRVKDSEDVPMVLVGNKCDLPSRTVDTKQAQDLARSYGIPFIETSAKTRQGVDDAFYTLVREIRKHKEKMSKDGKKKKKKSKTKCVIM
Test: Protein-protein interaction inhibition between Kras and SOS1 (KrasGl2D-SOS PPI) using AlphaScreen
Format: binding
Settings: AlphaScreen; biotin-tagged human Kras loaded with GDP, His-tagged human SOS1; read-out: KRAS G12D-SOS PPI IC50
Positions of bridges follow the written chain, without caps; N, C: chain ends. Non-standard residues stand in square brackets, D forms with d. Residues, ends and D or L forms follow the SMILES beside them. *: point of attachment. hPhe(3-Cl-4-CF3) = N[C@@H](CCc1ccc(C(F)(F)F)c(Cl)c1)C(=O)O; NMeCha = CN[C@@H](CC1CCCCC1)C(=O)O; NMeChg = CN[C@H](C(=O)O)C1CCCCC1; NMeD = CN[C@@H](CC(=O)O)C(=O)O; NMeL = CN[C@@H](CC(C)C)C(=O)O; Piperidide = C1CCN(*)CC1; Aib = CC(C)(N)C(=O)O; Sar = CNCC(=O)O
recorded endpoint: pIC50
# log scale: pIC50 equals minus log10 of the concentration in mol/L

Input CC[C@H](C)[C@@H]1NC(=O)[C@H](CC(C)C)N(C)C(=O)C[C@@H](C(=O)N2CCCCC2)N(C)C(=O)[C@H](C2CCCCC2)N(C)C(=O)C(C)(C)NC(=O)[C@@H]2CCCN2C(=O)[C@H](CCc2ccc(C(F)(F)F)c(Cl)c2)NC(=O)CN(C)C(=O)[C@H](CC2CCCCC2)N(C)C(=O)CN(C)C(=O)CN(C)C1=O [Compound 1680] ([NMeL]I[Sar][Sar][NMeCha][Sar][hPhe(3-Cl-4-CF3)]P[Aib][NMeChg][NMeD]-Piperidide; lactam N-11) . Output pIC50: 9.21

----------
Give IC50 for every item shown.
Target: Kras and SOS1 (biotin-tagged human Kras loaded with GDP, His-tagged human SOS1) (Homo sapiens, UniProt P01116, G12D)
Construct: made in house; host or cells: E. coli (stated for Kras only)
Assay: Protein-protein interaction inhibition between Kras and SOS1 (KrasGl2D-SOS PPI) using AlphaScreen
Type: binding
Conditions: AlphaScreen; biotin-tagged human Kras loaded with GDP, His-tagged human SOS1; read-out: KRAS G12D-SOS PPI IC50
Starred links: 1 amine or outer side, 2 acyl side, 3 side chain; linkers in the order of their positions; H or OH if unused. Positions of bridges follow the written chain, without caps; N, C: chain ends. Non-standard residues stand in square brackets, D forms with d. Residues, ends and D or L forms follow the SMILES beside them. hPhe(3-Cl-4-CF3) = N[C@@H](CCc1ccc(C(F)(F)F)c(Cl)c1)C(=O)O; X25 = CN([C@@H](Cc1ccc(C(F)F)cc1)C(=O)[*:2])[*:1]; NMePhe(4-Me) = CN[C@@H](Cc1ccc(C)cc1)C(=O)O; NMeF = CN[C@@H](Cc1ccccc1)C(=O)O; NMeI = CC[C@H](C)[C@H](NC)C(=O)O; NMeD = CN[C@@H](CC(=O)O)C(=O)O; NMeL = CN[C@@H](CC(C)C)C(=O)O; NMeV = CN[C@H](C(=O)O)C(C)C; d(β3hA) = C[C@@H](N)CC(=O)O; NMeA = CN[C@@H](C)C(=O)O; Ac5c = NC1(C(=O)O)CCCC1; Aze = O=C(O)[C@@H]1CCN1; Sar = CNCC(=O)O
Quick reminder: number only, in nM, skip the unit.

Input CC[C@H](C)[C@@H]1NC(=O)[C@H](C)N(C)C(=O)C[C@@H](C)NC(=O)[C@H](C(C)C)N(C)C(=O)C2(CCCC2)NC(=O)[C@@H]2CCCN2C(=O)[C@H](CCc2ccc(C(F)(F)F)c(Cl)c2)NC(=O)[C@H]2CCCN2C(=O)[C@H](Cc2ccccc2)N(C)C(=O)[C@@H]2CCCN2C(=O)CN(C)C1=O [Compound 1730] (cyclo([Ac5c][NMeV][d(β3hA)][NMeA]I[Sar]P[NMeF][dP][hPhe(3-Cl-4-CF3)]P)) . Output IC50: 35

Input CC[C@H](C)[C@@H]1NC(=O)[C@H](CC(C)C)N(C)C(=O)C[C@@H](C(=O)N(C)C)N(C)C(=O)[C@H]([C@@H](C)CC)N(C)C(=O)C2(CCCC2)NC(=O)[C@H](Cc2ccc(C(F)F)cc2)N(C)C(=O)[C@H](CCc2ccc(C(F)(F)F)c(Cl)c2)NC(=O)CN(C)C(=O)[C@H](Cc2ccc(C)cc2)N(C)C(=O)[C@@H]2CCN2C(=O)[C@H](C)N(C)C1=O [Compound 1930] ([NMeL]I[NMeA][Aze][NMePhe(4-Me)][Sar][hPhe(3-Cl-4-CF3)][X25][Ac5c][NMeI][NMeD]-NMe2; lactam N-11) . Output IC50: 3.6

----------
Target: Kras and SOS1 (biotin-tagged human Kras loaded with GDP, His-tagged human SOS1) (Homo sapiens, UniProt P01116, G12D)
Construct: made in house; host or cells: E. coli (stated for Kras only)
Assay: Protein-protein interaction inhibition between Kras and SOS1 (KrasGl2D-SOS PPI) using AlphaScreen
Format: binding
Conditions: AlphaScreen; biotin-tagged human Kras loaded with GDP, His-tagged human SOS1; read-out: KRAS G12D-SOS PPI IC50
Positions of bridges follow the written chain, without caps; N, C: chain ends. Non-standard residues stand in square brackets, D forms with d. Residues, ends and D or L forms follow the SMILES beside them. hPhe(3-Cl-4-CF3) = N[C@@H](CCc1ccc(C(F)(F)F)c(Cl)c1)C(=O)O; NMePhe(3-Cl) = CN[C@@H](Cc1cccc(Cl)c1)C(=O)O; NMePhe(4-Me) = CN[C@@H](Cc1ccc(C)cc1)C(=O)O; NMePhe(4-F) = CN[C@@H](Cc1ccc(F)cc1)C(=O)O; NMeGly(cPent) = CN[C@H](C(=O)O)C1CCCC1; NMeI = CC[C@H](C)[C@H](NC)C(=O)O; NMeD = CN[C@@H](CC(=O)O)C(=O)O; NMeL = CN[C@@H](CC(C)C)C(=O)O; d(β3hA) = C[C@@H](N)CC(=O)O; NMeA = CN[C@@H](C)C(=O)O; dNMeA = CN[C@H](C)C(=O)O; Ac5c = NC1(C(=O)O)CCCC1; Aze = O=C(O)[C@@H]1CCN1; Sar = CNCC(=O)O
Give pIC50 for every item shown.
# log scale: pIC50 equals minus log10 of the concentration in mol/L

Input CC[C@H](C)[C@@H]1NC(=O)[C@H](C)N(C)C(=O)C[C@@H](C)NC(=O)[C@H](C2CCCC2)N(C)C(=O)C2(CCCC2)NC(=O)[C@@H]2CCCN2C(=O)[C@H](CCc2ccc(C(F)(F)F)c(Cl)c2)NC(=O)[C@@H](C)N(C)C(=O)[C@H](Cc2cccc(Cl)c2)N(C)C(=O)[C@@H]2CCN2C(=O)[C@H](C)N(C)C1=O [Compound 42] (cyclo([Ac5c][NMeGly(cPent)][d(β3hA)][NMeA]I[NMeA][Aze][NMePhe(3-Cl)][dNMeA][hPhe(3-Cl-4-CF3)]P)) . Output pIC50: 6.72

Input CC[C@H](C)[C@@H]1NC(=O)[C@H](CC(C)C)N(C)C(=O)C[C@@H](C(=O)N(C)C)N(C)C(=O)[C@H]([C@@H](C)CC)N(C)C(=O)C2(CCCC2)NC(=O)[C@H](Cc2ccc(F)cc2)N(C)C(=O)[C@H](CCc2ccc(C(F)(F)F)c(Cl)c2)NC(=O)CN(C)C(=O)[C@H](Cc2ccc(C)cc2)N(C)C(=O)[C@@H]2CCN2C(=O)[C@H](C)N(C)C1=O [Compound 385] ([NMeL]I[NMeA][Aze][NMePhe(4-Me)][Sar][hPhe(3-Cl-4-CF3)][NMePhe(4-F)][Ac5c][NMeI][NMeD]-NMe2; lactam N-11) . Output pIC50: 8.33

----------
Target: Kras and SOS1 (biotin-tagged human Kras loaded with GDP, His-tagged human SOS1) (Homo sapiens, UniProt P01116, G12D)
Construct: made in house; host or cells: E. coli (stated for Kras only)
Experiment: Protein-protein interaction inhibition between Kras and SOS1 (KrasGl2D-SOS PPI) using AlphaScreen
Assay type: binding
Conditions: AlphaScreen; biotin-tagged human Kras loaded with GDP, His-tagged human SOS1; read-out: KRAS G12D-SOS PPI IC50
Positions of bridges follow the written chain, without caps; N, C: chain ends. Non-standard residues stand in square brackets, D forms with d. Residues, ends and D or L forms follow the SMILES beside them. *: point of attachment. hPhe(3-Cl-4-CF3) = N[C@@H](CCc1ccc(C(F)(F)F)c(Cl)c1)C(=O)O; NMePhe(4-CF3) = CN[C@@H](Cc1ccc(C(F)(F)F)cc1)C(=O)O; NMeAbu(4,4,4-F3) = CN[C@@H](CC(F)(F)F)C(=O)O; Pro(4,4-F2) = O=C(O)[C@@H]1CC(F)(F)CN1; NMeChg = CN[C@H](C(=O)O)C1CCCCC1; NMeD = CN[C@@H](CC(=O)O)C(=O)O; Morpholide = C1CN(*)CCO1; Ac5c = NC1(C(=O)O)CCCC1; Sar = CNCC(=O)O
recorded endpoint: pIC50
# log scale: pIC50 equals minus log10 of the concentration in mol/L

Input CC[C@H](C)[C@@H]1NC(=O)[C@H](CC(F)(F)F)N(C)C(=O)C[C@@H](C(=O)N2CCOCC2)N(C)C(=O)[C@H](C2CCCCC2)N(C)C(=O)C2(CCCC2)NC(=O)[C@@H]2CC(F)(F)CN2C(=O)[C@H](CCc2ccc(C(F)(F)F)c(Cl)c2)NC(=O)CN(C)C(=O)[C@H](Cc2ccc(C(F)(F)F)cc2)N(C)C(=O)CN(C)C(=O)CN(C)C1=O [Compound 1182] ([NMeAbu(4,4,4-F3)]I[Sar][Sar][NMePhe(4-CF3)][Sar][hPhe(3-Cl-4-CF3)][Pro(4,4-F2)][Ac5c][NMeChg][NMeD]-Morpholide; lactam N-11) . Output pIC50: 9.25
